What activation was measured for each of the following?
- TESTED SYSTEM: G-protein coupled receptor 151 (Homo sapiens) (UniProt Q8TDV0)
- Sequence (Q8TDV0 whole entry, looked up): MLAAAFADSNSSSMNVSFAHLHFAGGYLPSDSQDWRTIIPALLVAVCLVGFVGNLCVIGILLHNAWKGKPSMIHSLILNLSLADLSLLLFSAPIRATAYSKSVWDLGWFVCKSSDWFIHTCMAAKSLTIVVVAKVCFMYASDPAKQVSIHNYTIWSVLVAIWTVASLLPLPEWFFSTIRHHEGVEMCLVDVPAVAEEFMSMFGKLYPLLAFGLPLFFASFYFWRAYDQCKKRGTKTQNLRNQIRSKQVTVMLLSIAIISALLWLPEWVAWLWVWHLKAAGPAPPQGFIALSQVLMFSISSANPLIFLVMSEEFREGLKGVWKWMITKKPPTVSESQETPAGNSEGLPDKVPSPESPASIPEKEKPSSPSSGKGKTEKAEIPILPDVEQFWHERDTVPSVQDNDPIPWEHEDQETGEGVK
- PROCEDURE TEXT: activators of human GPR151, primary screen, cell-based, PathHunter beta-arrestin, luminescence (AID 1508602);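 note: 0% = median of compound wells and 100% = cells with positive control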
- MEASUREMENT CONDITIONS: PathHunter beta-arrestin GPR151 cells, at 11.2 µM, active compounds read high
The campaign covered roughly 650,000 compounds. About 6,800 (1%) were called active. Only a selection was taken, and actives are over-represented in it overall.
Give bare numbers, in %.

[[record]]
compound = "CCOC(=O)C1=C(C)N(Cc2ccco2)C(=O)C1(NC(=O)c1ccccc1)C(F)(F)F (stereo not given)"
quantitative_result = 0.126

[[record]]
compound = "CCCCc1ccc(NC(=O)CN2C(=O)C(C)SC(C)C2=O)cc1 (stereo not given)"
quantitative_result = 6.11

[[record]]
compound = "CC(C)C(=O)NNS(=O)(=O)c1ccc([N+](=O)[O-])cc1"
quantitative_result = 6.82


Provide activation for all items below, preserving their order.
1. COc1ccc(C(=O)Nc2c(C)n(C)n(-c3ccccc3)c2=O)c(OC)c1OC
2. COc1cc2ccccc2cc1C(=O)Nc1nc2ccc3ccccc3c2s1

stdout:
1. 0.96
2. -1.09

Provide activation for all items below, preserving their order.
1. CCCN1C(=O)C(NS(=O)(=O)c2ccc(N)cc2)(C(F)(F)F)C(C(=O)OC)=C1C (stereo not given)
2. Cc1ccc2nc(SCc3ccccc3)nc(=O)n2c1
3. COc1ccc(C(C)(C)C)cc1NC(=O)c1ccc2c(c1)NC(=O)C(C)S2 (stereo not given)
4. Cc1c(N=C(Nc2ccccc2)Nc2ccccc2)c(=O)n(-c2ccccc2)n1C
5. CC(NS(=O)(=O)c1ccc([N+](=O)[O-])cc1)C(=O)N/N=C/c1ccc(O)cc1 (stereo not given)

stdout:
1. 6.6
2. 1.52
3. -1.1
4. -0.384
5. 0.173

---

- TESTED SYSTEM: G-protein coupled receptor 151 (Homo sapiens) (UniProt Q8TDV0)
- PROCEDURE TEXT: activators of human GPR151, primary screen, cell-based, PathHunter beta-arrestin, luminescence (AID 1508602);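 note: 0% = median of compound wells and 100% = cells with positive control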
- MEASUREMENT CONDITIONS: PathHunter beta-arrestin GPR151 cells, at 11.2 µM, active compounds read high
Hit rate of the full screen: of about 650,000 compounds, about 6,800 (1%) were called active. The sample holds actives, similar compounds and a random draw of the others, so the mix is not that of the screen.
What activation was measured for each of the following?
Numbers only, in %.

[[record]]
compound = "Cc1ccc(CNC(=O)CN(C)S(=O)(=O)c2ccccc2)cc1"
quantitative_result = -0.21

[[record]]
compound = "Cc1ccc(C2=NC(c3ccc(F)cc3)NC(c3cc(Cl)ccc3O)C2)cc1 (configuration not stated)"
quantitative_result = 1.41


Provide activation for all items below, preserving their order.
1. Cc1ccc(S(=O)(=O)NCc2csc(-c3ccccc3)n2)cc1
2. COc1cccc(-c2nnc(N)s2)c1
3. CCc1ccc(S(=O)(=O)NCc2csc(-c3ccccc3)n2)cc1
4. COCCn1c(C)cc(C(=O)COC(=O)C2COc3ccccc3O2)c1C (configuration not stated)
5. O=C(Nc1ccc2oc(-c3cccc(I)c3)nc2c1)c1cc(Br)ccc1Cl
6. O=C(NC1CCCCCC1)c1ccc(NS(=O)(=O)c2cccs2)cc1

stdout:
[4.76, -0.725, -1.08, 0.229, -0.461, 2.64]

Provide activation for all items below, preserving their order.
1. CN(CC(COc1cccc2ccccc12)OC(=O)c1ccc(Cl)cc1Cl)C1=NS(=O)(=O)c2ccccc21 (configuration not stated)
2. CC1=C(C(=O)OCc2ccc3c(c2)OCO3)C(c2ccc(Cl)c(Cl)c2)NC(=O)N1 (configuration not stated)
3. Cc1nnc(SCc2ccc(CSc3nnc(C)n3N)cc2)n1N
4. CN(C)c1cccc(Nc2nc3ccc(C(=O)Nc4ccc(N5CCOCC5)cc4)cc3s2)c1

stdout:
1: 0.501; 2: -0.562; 3: -2.22; 4: -1.45

The measurements presented in this section are drawn from PubChem BioAssay AID1508602.
